These entries and their values trace back to the Immune Epitope Database (IEDB).

Entries and their measured Kd follow.
# experimental.system: HLA-A*26:01
# experimental.details: IEDB peptide-MHC binding, purified MHC/direct/fluorescence; filed as Kd, often an IC50 or EC50 that approximates it; bounds were set here for any values at or beyond the usual limits of such assays
# experimental.setup: source organism: Brucella melitensis

| residue.codes | Kd |
| --- | --- |
| RVISDGYFK | ≥ 20 µM |
| RLWNGRRCR | ≥ 20 µM |

----------
# experimental.system: HLA-A*32:07
# experimental.details: IEDB peptide-MHC binding, purified MHC/competitive/fluorescence; filed as Kd, often an IC50 or EC50 that approximates it; bounds were set here for any values at or beyond the usual limits of such assays
# experimental.setup: source organism: Mycobacterium tuberculosis

| residue.codes | Kd (nM) |
| --- | --- |
| ALRQARAAF | 157 |

----------
# experimental.system: HLA-A*68:02
# experimental.details: IEDB peptide-MHC binding, purified MHC/competitive/radioactivity; filed as Kd, often an IC50 or EC50 that approximates it; bounds were set here for any values at or beyond the usual limits of such assays
# experimental.setup: source organism: Dengue virus 4 Philippines/H241/1956
endpoint.name: Kd (nM)

| residue.codes | endpoint.name | uom | readout.value |
| --- | --- | --- | --- |
| ETALMVIGMA | Kd | nM | 5.23 |

----------
# experimental.system: HLA-A*11:01
# experimental.details: IEDB peptide-MHC binding, purified MHC/competitive/radioactivity; filed as Kd, often an IC50 or EC50 that approximates it; bounds were set here for any values at or beyond the usual limits of such assays
# experimental.setup: source organism: Dengue virus 4 Philippines/H241/1956
Entries and their Kd

| residue.codes | uom | Kd |
| --- | --- | --- |
| SIPPTAGILK | nM | 16.5 |
| ISLGLILLK | nM | 1.21 |

----------
# experimental.system: HLA-B*07:02
# experimental.details: IEDB peptide-MHC binding, purified MHC/competitive/radioactivity; filed as Kd, often an IC50 or EC50 that approximates it; bounds were set here for any values at or beyond the usual limits of such assays
# experimental.setup: source organism: Dengue virus 2 Jamaica/1409/1983
endpoint.name: Kd (nM)

| residue.codes | endpoint.name | uom | readout.value |
| --- | --- | --- | --- |
| SPGTSGSPIV | Kd | nM | 88.1 |

----------
# pKd values compiled below
# experimental.system: HLA-A*31:01
# experimental.details: IEDB peptide-MHC binding, purified MHC/competitive/radioactivity; filed as Kd, often an IC50 or EC50 that approximates it; bounds were set here for any values at or beyond the usual limits of such assays
# experimental.setup: source organism: Vaccinia virus WR
pKd: −log10 of the molar value.
endpoint.name: pKd

| residue.codes | endpoint.name | qualifier.sign | readout.value |
| --- | --- | --- | --- |
| IIFLKLFKK | pKd | = | 8.25 |
| PSAEDNYLAK | pKd | ≤ | 4.69 |
| IAPGIADIR | pKd | ≤ | 4.62 |
| KIIAVFDSK | pKd | = | 6.90 |
| DVKVLAARLK | pKd | = | 5.52 |
| AAVTLNRIK | pKd | = | 5.03 |
| NFEALEATK | pKd | = | 5.17 |
| DSPLTLLIK | pKd | ≤ | 4.25 |

----------
Property: pKd; scope: individual sequences
# experimental.system: HLA-A*31:01
# experimental.details: IEDB peptide-MHC binding, purified MHC/competitive/radioactivity; filed as Kd, often an IC50 or EC50 that approximates it; bounds were set here for any values at or beyond the usual limits of such assays
# experimental.setup: source organism: SARS coronavirus Tor2
pKd: −log10 of the molar value.

| residue.codes | qualifier.sign | pKd |
| --- | --- | --- |
| TLAVPYNMR | = | 6.82 |
| LMNVITLVYK | = | 6.13 |
| TLDESFLGR | = | 6.08 |
| STGNYNYKY | ≤ | 4.11 |
| GTSTDVVYR | = | 7.52 |
| AAISDYDYY | = | 4.76 |
| SLCFLLTQK | = | 6.64 |
| ALCTFLLNK | = | 6.45 |
| ALNHTKKWK | = | 6.28 |

----------
# experimental.system: HLA-A*03:01
# experimental.details: IEDB peptide-MHC binding, purified MHC/competitive/radioactivity; filed as Kd, often an IC50 or EC50 that approximates it; bounds were set here for any values at or beyond the usual limits of such assays
# experimental.setup: source organism: Vaccinia virus WR

| residue.codes | Kd |
| --- | --- |
| YTVEFDRDK | ≥ 78 µM |
| PIFSDLLKY | ≥ 29.5 µM |
| LSSIKSKSRR | ≥ 32.1 µM |
| ESRDRKWLY | ≥ 51.2 µM |
| SAVVDNKLK | ≥ 23.6 µM |
| AAVTLNRIK | ≥ 34.8 µM |
| DSPLTLLIK | ≥ 78 µM |

----------
# experimental.system: HLA-B*45:01
# experimental.details: IEDB peptide-MHC binding, purified MHC/competitive/radioactivity; filed as Kd, often an IC50 or EC50 that approximates it; bounds were set here for any values at or beyond the usual limits of such assays
# experimental.setup: source organism: SARS coronavirus Tor2
pKd: −log10 of the molar value.
Readings of pKd for the listed sequences

| residue.codes | experimental.system | pKd |
| --- | --- | --- |
| QELGHEDLMA | HLA-B*45:01 | 6.17 |
| NELTLIDFYL | HLA-B*45:01 | 5.97 |
| GEILLLEWL | HLA-B*45:01 | 6.07 |

----------
# experimental.system: HLA-A*68:01
# experimental.details: IEDB peptide-MHC binding, purified MHC/competitive/radioactivity; filed as Kd, often an IC50 or EC50 that approximates it; bounds were set here for any values at or beyond the usual limits of such assays
# experimental.setup: source organism: Vaccinia virus WR
Param label: returns Satisfied when Kd < 1000 nM, returns Not satisfied otherwise, including exact equality.

| residue.codes | discrete.label |
| --- | --- |
| LFIDRGSIK | Not satisfied |
| CFKEASFSK | Not satisfied |
| DSPLTLLIK | Not satisfied |
| AFDISVNASK | Not satisfied |
| KSTVKLVQR | Not satisfied |
| NFEALEATK | Satisfied |
| VVKLTAVCMK | Satisfied |
| AISKLGINY | Not satisfied |
| PISELSRLR | Satisfied |
| RIRQQLPLY | Not satisfied |

----------
# Kd annotations
# experimental.system: HLA-B*15:01
# experimental.details: IEDB peptide-MHC binding, purified MHC/competitive/radioactivity; filed as Kd, often an IC50 or EC50 that approximates it; bounds were set here for any values at or beyond the usual limits of such assays
# experimental.setup: source organism: Vaccinia virus WR

| residue.codes | Kd / nM |
| --- | --- |
| LMNKENAEM | 7.7 |
| IASTLIVTI | 156 |
| MQKFTILEY | 10.1 |

----------
# experimental.system: HLA-A*03:01
# experimental.details: IEDB peptide-MHC binding, purified MHC/competitive/radioactivity; filed as Kd, often an IC50 or EC50 that approximates it; bounds were set here for any values at or beyond the usual limits of such assays
# experimental.setup: source organism: Vaccinia virus WR
pKd: −log10 of the molar value.
Binary call on pKd: true (1) from 6 upward, false (0) beneath that.

| residue.codes | discrete.label |
| --- | --- |
| TMCTEETKR | false (0) |
| VIPFDDIVR | false (0) |
| PISELSRLR | false (0) |
| IAARILSEK | true (1) |
| LFIDRGSIK | false (0) |
| SAFNDDGIY | false (0) |
| VMANNVKKK | true (1) |
| LLLPSTDVNK | true (1) |
| IAPGIADIR | false (0) |
| GIFKNNDVR | false (0) |
| KSTVKLVQR | false (0) |
| VSIILANERY | false (0) |
| MATMLEYVRY | true (1) |
| TVKTNLYMK | false (0) |

----------
# experimental.system: HLA-A*31:01
# experimental.details: IEDB peptide-MHC binding, purified MHC/competitive/radioactivity; filed as Kd, often an IC50 or EC50 that approximates it; bounds were set here for any values at or beyond the usual limits of such assays
# experimental.setup: source organism: Vaccinia virus WR
Each record here notes measured Kd.

| residue.codes | experimental.system | Kd |
| --- | --- | --- |
| HAFDAPTLY | HLA-A*31:01 | ≥ 48.4 µM |
| EISSNDNAK | HLA-A*31:01 | ≥ 55.6 µM |
| ESRDRKWLY | HLA-A*31:01 | ≥ 61 µM |
